target: human CypD (Homo sapiens); experiment: Surface plasmon resonance binding to immobilized CypD; conditions: read-out: ka, CypD
Sequence (P30405 30-207): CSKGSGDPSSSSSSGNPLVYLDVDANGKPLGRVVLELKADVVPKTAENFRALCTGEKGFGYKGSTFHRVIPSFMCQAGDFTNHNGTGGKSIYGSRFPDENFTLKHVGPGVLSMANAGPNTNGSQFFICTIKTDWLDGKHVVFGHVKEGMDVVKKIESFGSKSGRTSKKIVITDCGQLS
Please respond with reported kon for every item in the list.
Answers are plain numbers, in M⁻¹ s⁻¹.

Study these solved cases before continuing.
Molecule: C[C@]12C=C(O)C(=O)[C@](C)(CO)[C@@H]1CC[C@@]1(C)c3cocc3CC[C@H]21
Target Of Assay: human CypD (Homo sapiens)
kon, M⁻¹ s⁻¹: 10000
//
Molecule: CC1(C)C(=O)C(O)=C[C@]2(C)[C@H]3CCc4cocc4[C@]3(C)CC[C@@H]12
Target Of Assay: human CypD (Homo sapiens)
kon, M⁻¹ s⁻¹: 10000
//
Molecule: CC1=C(O)C(=O)C[C@]2(C)[C@H]3CCc4cocc4[C@]3(C)CC[C@@H]12
Target Of Assay: human CypD (Homo sapiens)
kon, M⁻¹ s⁻¹: 3750

Look at this molecule and give its reported kon. C[C@]12CC(=O)[C@H](O)[C@](C)(CO)[C@@H]1CC[C@@]1(C)c3cocc3CC[C@H]21 [Compound 4, epispongiadiol]
738
